Value source: the supplement of paper PMC11634586

Test system: NCI-H1688
Experiment: inhibition of cell viability relative to untreated control (fraction); higher = stronger growth inhibition, active = 0.5 or more
Settings: 30 µM; 24 h
observation.type: inhibition of cell viability
One number for each entry.

Example entries begin here.
Per the record, `Nc1ncnc2c1ncn2[C@@H]1O[C@H](CO)[C@@H](O)[C@H]1O` has inhibition of cell viability of 0.189

Per the record, CC(C)=CCC[C@](C)(O[C@@H]1O[C@H](CO[C@@H]2O[C@H](CO)[C@@H](O)[C@H](O)[C@H]2O)[C@@H](O)[C@H](O)[C@H]1O)[C@H]1CC[C@]2(C)[C@@H]1[C@H](O)C[C@@H]1[C@@]3(C)CC[C@H](O[C@@H]4O[C@H](CO)[C@@H](O)[C@H](O)[C@H]4O[C@@H]4O[C@H](CO)[C@@H](O)[C@H](O)[C@H]4O)C(C)(C)[C@@H]3CC[C@]12C [Ginsenoside Rb1] has inhibition of cell viability of -0.0384

Per the record, CC(=O)C1=C(O)C=C2Oc3c(C(C)=O)c(O)c(C)c(O)c3C2(C)C1=O (stereo in doubt) has inhibition of cell viability of 0.273

Per the record, `CC1(C)CCC[C@](C)([C@H]2CC[C@]3(C)[C@@H]2[C@H](O)C[C@@H]2[C@@]4(C)CC[C@H](O)C(C)(C)[C@@H]4CC[C@]23C)O1` has inhibition of cell viability of -0.0255

Pending molecule:
Per the record, `CC(C)CCC[C@@H](C)[C@H]1CC[C@H]2[C@@H]3CC=C4C[C@@H](O)CC[C@]4(C)[C@H]3CC[C@]12C` has inhibition of cell viability of -0.0392
